Taken from paper PMC8837617.

- Assay Target: MAPK ERK2 (human, UniProt P28482 1-360)
- Sequence (P28482 whole entry): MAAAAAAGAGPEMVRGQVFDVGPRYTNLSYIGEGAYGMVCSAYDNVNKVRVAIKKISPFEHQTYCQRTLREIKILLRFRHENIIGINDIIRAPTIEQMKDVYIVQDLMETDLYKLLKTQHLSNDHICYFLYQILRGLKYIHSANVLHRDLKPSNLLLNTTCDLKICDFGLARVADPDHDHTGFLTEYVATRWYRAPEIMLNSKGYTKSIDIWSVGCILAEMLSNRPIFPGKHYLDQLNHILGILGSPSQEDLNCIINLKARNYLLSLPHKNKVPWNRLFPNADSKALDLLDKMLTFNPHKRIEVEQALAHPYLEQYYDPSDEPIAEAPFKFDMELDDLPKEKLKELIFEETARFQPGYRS
- Measurement Description: FP
No end group written: not given here. *: point of attachment. 5FAM = O=C1OC2(c3ccc(O)cc3Oc3cc(O)ccc32)c2ccc(C(=O)*)cc21
Observable: Kd (µM)

5FAM-RLQERRGSNVALMLDV [fluorescent reporter peptide fl-HePTP]
23.9
